Entries annotated with measured growth inhibition
protocol_notes: NCI Yeast Anticancer Drug Screen. Data for the bub3 strain (AID 167)
cond: S. cerevisiae bub3 mutant strain, at 50.0 µM (retest, dose inferred, filed as 5.0), stronger effect = higher value
The panel holds about 79,000 compounds, 15% with a hit somewhere; the sample as a whole holds those more often.
Field format: number, assumed %, no unit text.

// known answers, use as guide
[[record]]
molecule = "CCC[CH2][Sn]1([CH2]CCC)[O]N=C(c2ccccc2)C(c2ccccc2)[O]1 (configuration not stated)"
display_unit = "%"
quantitative_readout = 12

[[record]]
molecule = "CC(NC(=O)/C(C#N)=C/c1ccc2[nH]ccc2c1)c1ccccc1 (configuration not stated)"
display_unit = "%"
quantitative_readout = 94

[[record]]
molecule = "CCOC(=O)/C(=C/c1ccc(OC)c(OC)c1)C(=O)c1ccccc1"
display_unit = "%"
quantitative_readout = 92


Moving on to another molecule below.
Reported growth inhibition for COc1cc(/C=C/C(=O)NCCCCN=[N+]=[N-])ccc1OCc1ccccc1 was -8

====

protocol_notes: NCI Yeast Anticancer Drug Screen. Data for the mlh1 rad18 strain (AID 175)
cond: S. cerevisiae mlh1 rad18 strain growth inhibition; at 5.0 µM (retest, dose inferred, filed as 0.5); stronger effect = higher value
This is part of a sample that, as a whole, favours compounds with a hit. Of some 79,000 tested, about 15% had one in any assay.
Entries annotated with measured growth inhibition
Field format: number, assumed %, no unit text.

[[record]]
molecule = "CCc1cc2c(cc1C(C)=O)C(C)(C)CCC2"
test_readout = "growth inhibition"
display_unit = "%"
quantitative_readout = 9


Reported growth inhibition for Nc1ccc(N=Nc2ccccc2)c(N)n1 was -130

Reported growth inhibition for Cc1c2ccccc2c(C=O)c2ccccc12 was 40

Reported growth inhibition for COc1cc2c(c(OC)c1OC)-c1ccc(SC)c(=O)cc1C(NC(=O)c1ccccc1)CC2 (stereo not drawn) was -6

Reported growth inhibition for O=C1CSC(=S)N1c1ccc(F)c(F)c1 was -3

Reported growth inhibition for Cc1ccc(S(=O)(=O)N/N=C2/C(=O)c3cccc4cccc2c34)cc1 was 33

Reported growth inhibition for Nc1ncnc(N)c1N=O was -3

Reported growth inhibition for COc1ccc(COc2ccc(C(=O)CCN3CCOCC3)cc2)cc1 was 51

Reported growth inhibition for Cc1ccc(OC(=O)c2ccc(N)cc2O)cc1 was 33

Reported growth inhibition for Cn1c2nc3ccccc3c-2cc2ccccc21 was 48

Reported growth inhibition for O=C1Nc2ccccc2C1(O)C/C(=N/O)c1ccc2ccccc2c1 (stereo not drawn) was 40

Reported growth inhibition for O=C1C=C(O)c2ccccc2C1=O.[Ag] was 99

Reported growth inhibition for NC(=O)SCC(=O)NNc1ccccc1 was 14

====

protocol_notes: NCI Yeast Anticancer Drug Screen. Data for the cln2 rad14 strain (AID 165);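 also: 0% = growth equal to vehicle treated cultures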
cond: S. cerevisiae cln2 rad14 strain, at 50.0 µM (retest, dose inferred, filed as 5.0)
This is part of a sample that, as a whole, favours compounds with a hit. Of some 79,000 tested, about 15% had one in any assay. The source made the active and inactive calls. No stated cut-off is given here; in the data, active means growth inhibition above about 70%; inactive means the rest.
Mark one answer only. Choices: True (active), False (inactive)

[[record]]
compound = "Cc1c(N)nc(C(CC(N)=O)NCC(N)C(N)=O)nc1C(=O)NC(C(=O)NC(C)C(O)C(C)C(=O)NC(C(=O)NCCc1nc(-c2nc(C(=O)NCCCNCCCCN)cs2)cs1)C(C)O)C(OC1OC(CO)C(O)C(O)C1OC1OC(CO)C(O)C(OC(N)=O)C1O)c1cnc[nH]1 (stereo unspecified)"
category = "True"

[[record]]
compound = "S=c1nc[nH]c2[nH]ccc12"
category = "False"

[[record]]
compound = "CC(C)CC(Nc1c(O)ccc2ccccc12)C(=O)O (stereo unspecified)"
category = "True"

[[record]]
compound = "Nc1cc(F)c2c(c1)Cc1ccccc1-2"
category = "False"

[[record]]
compound = "CN=c1sc2nc(C#N)c(C#N)nc2n1C"
category = "False"

[[record]]
compound = "CCSSC(=Nc1ccccc1)OCC(C)C"
category = "True"

[[record]]
compound = "Clc1nc2nc(Cl)c(Cl)n2nc1Cl"
category = "False"

[[record]]
compound = "O=C(NNC(=O)c1ccccc1O)c1ccccc1O"
category = "False"


Request: State the result this test recorded for O=C1CSC(=S)N1c1ccc(F)c(F)c1 .
Result: False

Request: State the result this test recorded for Cc1c(Cl)cccc1NC(=O)CC1Sc2ccccc2NC1=O (stereo unspecified) .
Result: False

Request: State the result this test recorded for CC12CCC3c4ccc(O)cc4CCC3C1CCC2S (stereo unspecified) .
Result: True

====

protocol_notes: NCI Yeast Anticancer Drug Screen. Data for the sgs1 mgt1 strain (AID 161);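 also: 0% = growth of cultures given vehicle only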
cond: S. cerevisiae sgs1 mgt1 strain, at 50.0 µM, stronger effect = higher value
This is part of a sample that, as a whole, favours compounds with a hit. Of some 79,000 tested, about 15% had one in any assay.
Output: class label from growth inhibition. Mapping: lo: < 50%; med: ≥ 50% and < 80%; hi: ≥ 80%

[[record]]
compound = "Cc1cccc(Cc2ccccc2Cl)c1O"
category = "hi"

[[record]]
compound = "CCCCCCN(CCCCCC)C(=O)C1=C(C)NC(C)=C(C(=O)N(CCCCCC)CCCCCC)C1"
category = "hi"

[[record]]
compound = "CC(C)(C)c1ccc(-c2c3ccccc3cc3ccccc23)cc1"
category = "lo"

[[record]]
compound = "CN1C(c2ccccc2)CC(=NOCc2ccccc2)CC1c1ccccc1 (centres undefined)"
category = "hi"

[[record]]
compound = "O=[N+]([O-])c1c(Cl)nc2ccccn12"
category = "lo"


Request: Category lookup for the compound Cc1nc2c(nc1C)C(=O)c1ccccc1C2=O
Result: med

Request: Category lookup for the compound O=C(NNC(=O)c1ccccc1O)c1ccccc1O
Result: med

Request: Category lookup for the compound CCCCCCCCOC(=O)c1cc(O)c(O)c(O)c1
Result: hi

====

protocol_notes: NCI Yeast Anticancer Drug Screen. Data for the mlh1 rad18 strain (AID 175)
cond: S. cerevisiae mlh1 rad18 strain growth inhibition; at 50.0 µM; stronger effect = higher value
This is part of a sample that, as a whole, favours compounds with a hit. Of some 79,000 tested, about 15% had one in any assay.
test_readout: growth inhibition (%)
Field format: number, assumed %, no unit text.

[[record]]
molecule = "COC(=O)CSC(=S)N1CCOCC1"
test_readout = "growth inhibition"
quantitative_readout = 24.2


Reported growth inhibition for CCN(CC)CCNc1nc(NCCN(CC)CC)c2nc(-c3ccccc3)c(-c3ccccc3)nc2n1 was 98.4

Reported growth inhibition for CCSC(=NC)Nc1ccc(Oc2ccc(Cl)cc2)cc1 was 81.6

Reported growth inhibition for COc1ccc(-c2c(C#N)c(-c3ccc(C)cc3)n(NS(=O)(=O)c3ccccc3)c(=O)c2C#N)cc1 was 43

Reported growth inhibition for COc1ccc2cc(C(C)=O)c3ccccc3c2c1 was 97

Reported growth inhibition for c1ccc2nc3c(ccc4ccccc43)cc2c1 was 83

Reported growth inhibition for O=C(CCl)Nc1ccc(C(=O)N/N=C/c2ccc(Cl)cc2)cc1 was -27.7

====

protocol_notes: NCI Yeast Anticancer Drug Screen. Data for the sgs1 mgt1 strain (AID 161);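 also: 0% = growth of cultures given vehicle only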
cond: S. cerevisiae sgs1 mgt1 strain, at 5.0 µM (retest, dose inferred, filed as 0.5), stronger effect = higher value
This is part of a sample that, as a whole, favours compounds with a hit. Of some 79,000 tested, about 15% had one in any assay. Where a SMILES comes first, the peptide text is derived from it. [ ]: non-standard residue; d: D form. ξ: configuration not given here. ξV = CC(C)C(N)C(=O)O
test_readout: growth inhibition (%)
Field format: number, assumed %, no unit text.

// known answers, use as guide
[[record]]
molecule = "CCCCCCCCCCCCCCCCCCOCC(O)CO (centres undefined)"
quantitative_readout = -1

[[record]]
molecule = "C=C[C@]1(C)C=C2C(O)CC3C(C)(C)CCC[C@]3(CO)C2CC1 (some centres undefined)"
quantitative_readout = 17

[[record]]
molecule = "CO[C@H](C(=O)[C@@H](O)[C@@H](C)O)[C@@H]1Cc2cc3cc(OC4CC(OC5CC(O)C(O)C(C)O5)C(O)C(C)O4)c(C)c(O)c3c(O)c2C(=O)[C@H]1OC1CC(OC2CC(OC3CC(C)(O)C(O)C(C)O3)C(O)C(C)O2)C(O)C(C)O1 (some centres undefined)"
quantitative_readout = 6

[[record]]
molecule = "COc1cccc2c1C(=O)c1c(O)c3c(c(O)c1C2=O)C[C@@](O)(C(C)=O)C[C@@H]3OC1CC(O)C(O)C(C)O1 (some centres undefined)"
quantitative_readout = 25

[[record]]
molecule = "C#CC(C)(C)OC(=O)Nc1ccccc1"
quantitative_readout = -2

[[record]]
molecule = "CC(C)C(NC(=O)CN)C(=O)O (centres undefined) (H-Gly-[ξV]-OH)"
quantitative_readout = -62

[[record]]
molecule = "Cc1ccc(NCCN(C)C)c2c(=O)c3cc(O)ccc3sc12"
quantitative_readout = 10

[[record]]
molecule = "COC(=O)[C@]1(C)CCC[C@]2(C)c3cc(C(C)=O)c(C(C)C)cc3CC[C@@H]12"
quantitative_readout = -4


Reported growth inhibition for C1=C(CN2CCCCC2)COc2ccccc21 was -7

Where do these numbers come from? They come from PubChem BioAssay (NCI).
